Consider the following binders; for each one, report its Mean % WT Binding.
target: human CD33 variant P48D (human, UniProt P20138 18-364); test: flow cytometry, IgG on cells expressing the mutant
Sequence (P20138 18-364 P48D limits assumed): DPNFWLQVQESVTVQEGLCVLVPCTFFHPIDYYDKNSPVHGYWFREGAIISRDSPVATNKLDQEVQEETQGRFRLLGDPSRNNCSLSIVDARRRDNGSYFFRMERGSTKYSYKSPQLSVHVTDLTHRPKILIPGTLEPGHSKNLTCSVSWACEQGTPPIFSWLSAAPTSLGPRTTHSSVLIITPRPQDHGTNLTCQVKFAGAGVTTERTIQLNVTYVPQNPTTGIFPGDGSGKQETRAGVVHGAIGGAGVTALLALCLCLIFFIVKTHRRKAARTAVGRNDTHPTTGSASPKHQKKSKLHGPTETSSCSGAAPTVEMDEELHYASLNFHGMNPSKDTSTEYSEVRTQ

I would be grateful if you could share the reported Mean % WT Binding for Refmab #2 (antibody, human IgG1, V domains shown, Tested in IgG format; human IgG1 Fc silent (PG-LALA)) VH: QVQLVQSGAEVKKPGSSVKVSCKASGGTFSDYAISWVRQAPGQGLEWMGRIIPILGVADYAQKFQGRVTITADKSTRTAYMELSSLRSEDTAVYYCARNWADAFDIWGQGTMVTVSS VL: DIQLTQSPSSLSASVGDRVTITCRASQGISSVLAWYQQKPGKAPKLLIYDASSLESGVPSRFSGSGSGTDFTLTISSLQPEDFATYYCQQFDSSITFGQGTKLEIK .
10.4 % of WT

Param item = Refmab #4 (antibody, human IgG1, V domains shown, Tested in IgG format; human IgG1 Fc silent (PG-LALA)) VH: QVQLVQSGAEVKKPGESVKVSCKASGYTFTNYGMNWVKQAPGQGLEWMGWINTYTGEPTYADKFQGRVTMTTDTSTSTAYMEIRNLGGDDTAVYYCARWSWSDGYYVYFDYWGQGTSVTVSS VL: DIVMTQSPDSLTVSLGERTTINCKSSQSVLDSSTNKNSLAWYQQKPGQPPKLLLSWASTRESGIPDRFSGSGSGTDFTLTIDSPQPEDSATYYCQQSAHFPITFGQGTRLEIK ; retrieve measured Mean % WT Binding.
2 % of WT

If you can, please state the reported Mean % WT Binding value of Refmab #1 (antibody, human IgG1, V domains shown, Tested in IgG format; human IgG1 (Absolute Antibody hP67.6, Cat. No. Ab00283-10.0); also called hP67.6) VH: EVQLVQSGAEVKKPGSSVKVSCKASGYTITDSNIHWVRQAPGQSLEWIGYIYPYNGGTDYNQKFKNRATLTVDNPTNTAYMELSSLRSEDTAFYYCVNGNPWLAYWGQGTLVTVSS VL: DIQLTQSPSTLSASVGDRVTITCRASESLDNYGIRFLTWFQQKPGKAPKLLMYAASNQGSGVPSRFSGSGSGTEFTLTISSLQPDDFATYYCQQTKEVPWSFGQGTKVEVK .
109 % of WT

Form field: reported Mean % WT Binding of Refmab #3 (antibody, human IgG1, V domains shown, Tested in IgG format; human IgG1 Fc silent (PG-LALA)) VH: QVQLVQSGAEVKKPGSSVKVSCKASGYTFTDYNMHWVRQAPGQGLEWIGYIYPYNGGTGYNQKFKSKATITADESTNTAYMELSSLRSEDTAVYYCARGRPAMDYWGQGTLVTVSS VL: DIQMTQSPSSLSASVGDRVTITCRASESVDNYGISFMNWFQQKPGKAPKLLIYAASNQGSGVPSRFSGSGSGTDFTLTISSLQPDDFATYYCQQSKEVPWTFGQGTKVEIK
100 % of WT
